Record set of MIC for target or system Proteus mirabilis 18.
A number alone suffices; assume µg/mL.

Example molecules with recorded MIC:
Nc1nc(/C(=N/OCCO)C(=O)NC2C(=O)N3C(C(=O)O)=CCSC23)cs1 (stereo not drawn) ... 0.025
CCOCCO/N=C(\C(=O)NC1C(=O)N2C(C(=O)O)=CCSC12)c1csc(N)n1 (stereo not drawn) ... 0.2
Nc1nc(/C(=N/OCc2ccon2)C(=O)NC2C(=O)N3C(C(=O)O)=CCSC23)cs1 (stereo not drawn) ... 0.1
NCc1ccc(CO/N=C(\C(=O)NC2C(=O)N3C(C(=O)O)=CCSC23)c2csc(N)n2)cc1 (stereo not drawn) ... 0.1
CSCO/N=C(\C(=O)NC1C(=O)N2C(C(=O)O)=CCSC12)c1csc(N)n1 (stereo not drawn) ... 0.05

Let us examine a further case.
What the record says about N#CCO/N=C(\C(=O)NC1C(=O)N2C(C(=O)O)=CCSC12)c1csc(N)n1 (stereo not drawn) : MIC is 0.025

* * *

tested on: Proteus vulgaris IAM-1025
Listing: MIC of selected compounds

NCc1ccc(CO/N=C(\C(=O)NC2C(=O)N3C(C(=O)O)=CCSC23)c2csc(N)n2)cc1 (stereo not drawn) [Compound 5] ... 0.05 µg/mL
CCOCCO/N=C(\C(=O)NC1C(=O)N2C(C(=O)O)=CCSC12)c1csc(N)n1 (stereo not drawn) [Compound 3] ... 0.025 µg/mL
Nc1nc(/C(=N/OCCO)C(=O)NC2C(=O)N3C(C(=O)O)=CCSC23)cs1 (stereo not drawn) [Compound 2] ... 0.025 µg/mL
CSCO/N=C(\C(=O)NC1C(=O)N2C(C(=O)O)=CCSC12)c1csc(N)n1 (stereo not drawn) [Compound 4] ... 0.025 µg/mL
Nc1nc(/C(=N/OCc2ccon2)C(=O)NC2C(=O)N3C(C(=O)O)=CCSC23)cs1 (stereo not drawn) [Compound 6] ... 0.025 µg/mL

Kindly review the next compound as well.
Given item N#CCO/N=C(\C(=O)NC1C(=O)N2C(C(=O)O)=CCSC12)c1csc(N)n1 (stereo not drawn) [Compound 1] , the value recorded as its MIC is 0.025 µg/mL
